Target Or Test System: Prostaglandin E synthase (Homo sapiens)
Sequence (O14684 whole entry): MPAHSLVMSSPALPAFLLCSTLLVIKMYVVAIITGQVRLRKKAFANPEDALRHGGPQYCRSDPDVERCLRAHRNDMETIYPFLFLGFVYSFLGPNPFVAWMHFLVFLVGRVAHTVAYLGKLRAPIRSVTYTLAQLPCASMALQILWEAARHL
Protocol: Inhibition of microsomal PGES1 isolated from IL-1beta-stimulated human A549 cells preincubated for 15 mins followed by substrate addition measured after 1 min by RP-HPLC analysis
pIC50: −log10 of the molar value.
Measured Quantity: pIC50

                    structure_smiles_string  measured_quantity  sign  observed_value
0  CC(C)[C@@H]1CC[C@]2(C)[C@H](C(=O)C=C3[C@@H]4[C@@H](C)[C@H](C)CC[C@]4(C)CC[C@]32C)[C@@]1(C)CCC(=O)O              pIC50     =            6.00
1  C=C(C)[C@@H]1CC[C@]2(C)CC[C@]3(C)[C@H](CC[C@@H]4[C@@]5(C)CC[C@H](O)[C@](C)(C(=O)O)[C@@H]5CC[C@]43C)[C@@H]12              pIC50     =            5.07
2  CC(C)=CCC[C@H](C(=O)O)[C@@H]1CC[C@]2(C)C3=CC[C@H]4C(C)(C)[C@H](O)CC[C@]4(C)[C@H]3CC[C@@]12C              pIC50     =            5.52
3  CC(=O)O[C@@H]1CC[C@]2(C)[C@H]3CC[C@@]4(C)[C@H]([C@H](CCC=C(C)C)C(=O)O)CC[C@]4(C)C3=CC[C@H]2C1(C)C              pIC50     =            6.40
4  C=C(C)[C@@H]1CC[C@]2(C)CC[C@]3(C)[C@H](CC[C@@H]4[C@@]5(C)CC[C@H](OC(C)=O)[C@](C)(C(=O)O)[C@@H]5CC[C@]43C)[C@@H]12              pIC50     =            5.00
5  C=C(C)[C@@H]1CC[C@]2(CO)CC[C@]3(C)[C@H](CC[C@@H]4[C@@]5(C)CC[C@H](OC(C)=O)[C@](C)(C(=O)O)[C@@H]5CC[C@]43C)[C@@H]12              pIC50     =            6.05
6  C=C(C)[C@@H]1CC[C@]2(C)[C@H](CC=C3[C@@H]4[C@@H](C)[C@H](C)CC[C@]4(C)CC[C@]32C)[C@@]1(C)CCC(=O)O              pIC50     <            5.00
